- measured target: SmosOBP12 (Sitodiplosis mosellana, UniProt A0A346RTY7)
- Sequence (A0A346RTY7 entry or part of it): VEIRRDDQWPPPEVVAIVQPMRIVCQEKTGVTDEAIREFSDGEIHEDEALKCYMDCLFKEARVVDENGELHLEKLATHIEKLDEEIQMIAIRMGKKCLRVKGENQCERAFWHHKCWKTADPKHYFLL
- assay text: Fluorescence competitive binding assay with 1-NPN probe, recombinant SmosOBP12
- experimental context: displacement of 1-NPN; 2 μM protein, 2 μM 1-NPN, ligand 2–14 μM; three independent measurements; read-out: SmosOBP12 IC50
# IC50 annotations

Some solved cases for reference:
compound=CC1=CC[C@@]23CC1C(C)(C)[C@@H]2CC[C@H]3C data_value="> 14 µM"
compound=C=C/C(C)=C/C/C=C(\C)CCC=C(C)C data_value="> 14 µM"
compound=CCCCCCCCCCCCCCC data_value="> 14 µM"
compound=CCCCCCCCCCCC(C)=O data_value="> 14 µM"
compound="CCCCCCOC(=O)CC [Hexyl propionate]" data_value="7.28 µM"
compound="CC(=O)OCCCCCC(C)C [Isooctyl acetate]" data_value="> 14 µM"

Return value of IC50 for input CCCCCOC(=O)CCCC [Pentyl pentanoate] , no commentary.
5.23 µM

Return value of IC50 for input CCCC(O)CC (centres unmarked) , no commentary.
4.12 µM

###

- measured target: SmosOBP17 (Sitodiplosis mosellana, UniProt A0A346RTY9)
- Sequence (A0A346RTY9 entry or part of it): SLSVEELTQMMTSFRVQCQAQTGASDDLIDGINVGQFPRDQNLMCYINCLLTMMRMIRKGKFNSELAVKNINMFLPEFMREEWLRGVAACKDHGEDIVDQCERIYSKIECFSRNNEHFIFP
- assay text: Fluorescence competitive binding assay with 1-NPN probe, recombinant SmosOBP17
- experimental context: calculated from IC50, Ki = [IC50]/(1 + [1-NPN]/K1-NPN)
readout type: Ki (µM)
Note: unit µM is implicit; provide only the numeric part.

Some solved cases for reference:
compound="CCCC(O)CC (stereo not drawn)" data_value=26
compound="CCCCCCC(=O)OCC [Ethyl heptanoate]" data_value=28.8
compound="CCCCCCCOC(C)=O [Heptyl acetate]" data_value=21.6

For SmosOBP17 (Sitodiplosis mosellana, UniProt A0A346RTY9), give Ki of the listed compound: "CC(C)(CO)[C@@H](O)C(=O)NCCCO"
28.6

###

# pIC50 annotations
- measured target: SmosOBP12 (Sitodiplosis mosellana, UniProt A0A346RTY7)
- assay text: Fluorescence competitive binding assay with 1-NPN probe, recombinant SmosOBP12
- experimental context: displacement of 1-NPN; 2 μM protein, 2 μM 1-NPN, ligand 2–14 μM; three independent measurements; read-out: SmosOBP12 IC50
pIC50: −log10 of the molar value.

compound=CCCCCCCCCCCCC data_value="< 4.85"
compound=C/C1=C\CC/C(C)=C/CC(C)(C)/C=C/C1 data_value="< 4.85"

Proceeding to the next molecule to report its pIC50.
Return value of pIC50 for input "CCCCCCCCCCCC" , no commentary.
< 4.85
